- target: Adrenergic β2 (Homo sapiens, UniProt P07550)
- Construct: Adherent H292 cells were removed from tissue culture flasks; endogenous in cells; host or cells: H292 cells
- Sequence (P07550 whole entry): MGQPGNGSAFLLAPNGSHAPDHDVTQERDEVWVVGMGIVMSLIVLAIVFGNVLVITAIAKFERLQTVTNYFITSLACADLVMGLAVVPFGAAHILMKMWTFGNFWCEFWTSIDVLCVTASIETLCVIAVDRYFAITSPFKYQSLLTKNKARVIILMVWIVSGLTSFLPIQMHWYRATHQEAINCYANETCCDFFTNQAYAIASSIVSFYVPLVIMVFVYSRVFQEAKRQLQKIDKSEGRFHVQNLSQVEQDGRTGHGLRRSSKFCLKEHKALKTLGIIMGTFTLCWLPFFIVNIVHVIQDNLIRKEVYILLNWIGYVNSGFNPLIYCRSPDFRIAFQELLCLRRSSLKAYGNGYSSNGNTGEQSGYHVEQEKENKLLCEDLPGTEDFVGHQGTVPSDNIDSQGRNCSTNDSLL
- assayOverview: Adrenergic β2 mediated cAMP production in H292 cells (AlphaScreen cAMP detection)
- Format: cell-based
- Parameters: key: fraction of formoterol maximum activity (formoterol = 1)
- testContext: Intrinsic Activity as a fraction relative to the maximum activity determined for formoterol
Structures can show the parent of a compound that is named as a salt.
Recorded β2 Int Act values for a group of compounds are listed next.
Lab note: record just the number, no unit beside it.

Record excerpt, results attached:
compound	β2 Int Act
O=C1COc2c(CCNCCN(C(=O)CCNCCc3cc(Cl)ccc3F)C3CCCCC3)ccc(O)c2N1 [Example 34, bis(trifluoroacetate)]	0.9
O=C1COc2c(CCNCCN(C(=O)CCNCCc3cc(F)cc(F)c3)C3CCCCCC3)ccc(O)c2N1 [Example 65, bis(trifluoroacetate)]	0.93
O=C1COc2c(CCNCCN(C(=O)CCOCCc3ccccc3)C3CCCCC3)ccc(O)c2N1 [Example 70, trifluoroacetate]	0.97
O=C1COc2c(CCNCCN(C(=O)CCNCCc3cccc(F)c3)C3CCCCCC3)ccc(O)c2N1 [Example 69, bis(trifluoroacetate)]	0.88
O=C1COc2c(CCNCCN(C(=O)CCNCCc3cc(F)ccc3F)C3CCCCCC3)ccc(O)c2N1 [Example 64, bis(trifluoroacetate)]	0.88

Read the next record carefully.
Query :: Find the recorded β2 Int Act belonging to CCCC[C@@H](C)N(CCNCCc1ccc(O)c2c1OCC(=O)N2)C(=O)CCNCCc1cc(F)cc(Cl)c1 [Example 50, bis(trifluoroacetate)] and report it.
Result :: 0.89

Reference source: patent US20120142646A1
